Cited source: PubChem BioAssay AID212

Tested on: BDF1 mice, colon carcinoma 38 sc, T/C %
assay_name: NCI In Vivo Anticancer Drug Screen. Data for tumor model Colon Carcinoma 38 (subcutaneous) in B6D2F1 (BDF1) mice
condition_description: endpoint: median tumor weight (est.); dose: 100.0 mg/kg/injection; schedule: Q07DX002 (ip); vehicle: saline; higher = larger tumour
Records with an inconclusive call do not appear.
Here the recorded T/C is given for each entry.

INSERT INTO assay_data (compound, property_measured, recorded_value) VALUES
  ('NC(=O)c1ncn2c(=O)n(CCCl)nnc12', 'T/C', '2 % of control'),
  ('CCC(C(=O)O)C(=O)O.[NH-]CC1CCCC[N-]1.[Pt+2]', 'T/C', '209 % of control'),
  ('O=c1[nH]c(=O)n(C2CC(O)C(CO)O2)cc1I (stereo not given)', 'T/C', '50 % of control'),
  ('C1CNCOC1', 'T/C', '115 % of control');

Tell me T/C reported for OCCN1CCN(CC/C=C2/c3ccccc3Sc3ccc(Cl)cc32)CC1
99 % of control

###

Here the recorded T/C is given for each entry.
System: BDF1 mice, colon carcinoma 38 sc, T/C %
assay_name: NCI In Vivo Anticancer Drug Screen. Data for tumor model Colon Carcinoma 38 (subcutaneous) in B6D2F1 (BDF1) mice
condition_description: endpoint: median tumor weight (est.); dose: 50.0 mg/kg/injection; schedule: Q07DX002 (ip); vehicle: saline with Tween-80; higher = larger tumour
Method: The antitumor activity of compounds was measured in mice bearing transplantable tumors. Survival or tumor size were measured and the results are expressed as the measurement made in the treated group (T) divided by the measurement made in the vehicle treated control group (C). The tumor model used in this assay is Colon Carcinoma 38 (subcutaneous) in B6D2F1 (BDF1) mice
Results filed as inconclusive are left out.

Known results for molecules:
INSERT INTO results (molecule, property_measured, recorded_value) VALUES
  ('Oc1cc2ccccc2c(-c2c(O)c(O)cc3ccccc23)c1O', 'T/C', '114 % of control'),
  ('NC(=S)N/N=C/c1ccc(OC(=O)COc2ccc(Cl)cc2)cn1', 'T/C', '119 % of control'),
  ('CC(/C=C/c1ccccc1)=Nc1ccccc1', 'T/C', '110 % of control'),
  ('O=C1C(O)=C(c2ccccc2)C(=O)C(O)=C1c1ccccc1', 'T/C', '86 % of control'),
  ('c1ccc2c(c1)-c1ccccc1C1NC21 (stereo unspecified)', 'T/C', '93 % of control');

Field: next molecule
Tell me T/C reported for O=C(Nc1cccc2c(OC(=O)C(Cl)Cl)c(N=Nc3ccc(S(=O)(=O)Nc4nccs4)cc3)cc(N=Nc3ccc(S(=O)(=O)Nc4nccs4)cc3)c12)C(Cl)Cl (tested in a mixture with another compound)
92 % of control

###

Here the recorded T/C is given for each entry.
System: BDF1 mice, colon carcinoma 38 sc, T/C %
assay_name: NCI In Vivo Anticancer Drug Screen. Data for tumor model Colon Carcinoma 38 (subcutaneous) in B6D2F1 (BDF1) mice
condition_description: endpoint: median tumor weight (est.); dose: 12.5 mg/kg/injection; schedule: Q07DX002 (ip); vehicle: saline with Tween-80; higher = larger tumour
Records with an inconclusive call do not appear.

INSERT INTO assay_data (compound, tested_system, recorded_value) VALUES
  ('CC1(C)CC1(Br)Br', 'BDF1 mice, colon carcinoma 38 sc, T/C %', '155 % of control');

Tell me T/C reported for O=C1CC(C(=O)N2Cc3cc4ccccc4nc3C2)CO1 (stereo not given)
100 % of control

Tell me T/C reported for C/C(=N/NC(N)=S)c1ccc2ccccc2c1
63 % of control

Tell me T/C reported for C=CS(=O)(=O)c1ccccc1
66 % of control

Tell me T/C reported for Oc1cc2ccccc2c(-c2c(O)c(O)cc3ccccc23)c1O
94 % of control

Tell me T/C reported for Cc1ccc2c(c1)N=C(Nc1ccccc1)N=S2(C)=O (stereo not given)
76 % of control

Tell me T/C reported for CCOC(=O)C(C)(C)Oc1ccc(Cl)cc1
60 % of control

Tell me T/C reported for O=C(Nc1cccc2c(OC(=O)C(Cl)Cl)c(N=Nc3ccc(S(=O)(=O)Nc4nccs4)cc3)cc(N=Nc3ccc(S(=O)(=O)Nc4nccs4)cc3)c12)C(Cl)Cl (tested in a mixture with another compound)
100 % of control

Tell me T/C reported for COc1cc(Cl)ccc1C
99 % of control

Tell me T/C reported for CC(=O)Nc1ccc(O)c(O)c1
112 % of control

Tell me T/C reported for Nc1nc(N)c2c(ccc3c2ccn3Cc2cccc([N+](=O)[O-])c2)n1
72 % of control

Tell me T/C reported for NC(C(=O)O)c1ccc(CBr)cc1 (stereo not given)
151 % of control

Tell me T/C reported for CCCCCCCCCCCCCC#CC(=O)O
92 % of control

Tell me T/C reported for NC(N)=NC(N)=Nc1ccc(-c2ccc(N=C(N)N=C(N)N)cc2)cc1
75 % of control

Tell me T/C reported for CCCCc1ccc2nc(NC(=O)OC)[nH]c2c1
114 % of control

###

Here the recorded T/C is given for each entry.
System: BDF1 mice, colon carcinoma 38 sc, T/C %
assay_name: NCI In Vivo Anticancer Drug Screen. Data for tumor model Colon Carcinoma 38 (subcutaneous) in B6D2F1 (BDF1) mice
condition_description: endpoint: median tumor weight (est.); dose: 200.0 mg/kg/injection; schedule: Q07DX002 (ip); vehicle: Klucel (hydroxypropylcellulose) (HPC); higher = larger tumour
Results filed as inconclusive are left out.

Known results for compounds:
INSERT INTO assay_data (compound, property_measured, recorded_value) VALUES
  ('ClCCN(CCCl)c1ccc(/C=C/c2ccccc2)cc1', 'T/C', '72 % of control'),
  ('Cc1cc2nc3[nH]c4ccccc4c3nc2cc1C', 'T/C', '220 % of control'),
  ('Nc1nc(N)c2cc(CNc3ccc(C(=O)NC(CC(=O)O)CC(=O)O)cc3)ccc2n1', 'T/C', '114 % of control'),
  ('Cc1ccc(S(=O)(=O)NC(=O)C2C(=O)CC3(CCCCC3)CC2=O)cc1', 'T/C', '95 % of control');

Tell me T/C reported for COC1=CC(=O)N(C(=O)C2CSC(C(CO)NC(=O)c3csc(/C=N/O)n3)=N2)C1 (centres undefined)
150 % of control

Tell me T/C reported for C=C(NC(=O)C(=C)NC(=O)c1csc(C2=NC3c4csc(n4)C4NC(=O)c5csc(n5)C(C(C)(O)C(C)O)NC(=O)C5CSC(=N5)/C(=C/C)NC(=O)C(C(C)O)NC(=O)c5csc(n5)C3(CC2)NC(=O)C(C)NC(=O)C(=C)NC(=O)C(C)NC(=O)C(C(C)CC)NC2C=Cc3c(C(C)O)cc(nc3C2O)C(=O)OC4C)n1)C(N)=O (centres undefined)
110 % of control

Tell me T/C reported for CSc1cc(C)[o+]c(C)c1
108 % of control

Tell me T/C reported for Ic1ncnc2c1ncn2C1CCCO1 (centres undefined)
81 % of control

Tell me T/C reported for O=C(O)CSc1nc(-c2ccccc2)c(-c2ccccc2)n1-c1ccccn1
73 % of control

###

System: BDF1 mice, colon carcinoma 38 sc, T/C %
assay_name: NCI In Vivo Anticancer Drug Screen. Data for tumor model Colon Carcinoma 38 (subcutaneous) in B6D2F1 (BDF1) mice
condition_description: endpoint: median tumor weight (est.); dose: 50.0 mg/kg/injection; schedule: Q07DX002 (ip); vehicle: saline; higher = larger tumour
Inconclusive results are not listed.
property_measured: T/C

Known results for compounds:
INSERT INTO results (compound, property_measured, recorded_value) VALUES
  ('CCCC(=O)O', 'T/C', '105 % of control'),
  ('O=C1N(CC2CO2)CCN1CC1CO1 (stereo unspecified)', 'T/C', '26 % of control'),
  ('Nc1nc(/C=C(/O)c2ccccc2)c2ncn(C3OC(CO)C(O)C3O)c2n1 (stereo unspecified)', 'T/C', '89 % of control'),
  ('COC(=O)C(N)Cc1ccc(O)c(O)c1 (stereo unspecified)', 'T/C', '85 % of control'),
  ('CCC(C(=O)O)C(=O)O.[NH-]CC1CCCC[N-]1.[Pt+2]', 'T/C', '404 % of control');

Tell me T/C reported for O=C(O)C(O)C(O)C1[O][Sb][O]C1C(=O)O (stereo unspecified)
109 % of control

Tell me T/C reported for Cc1ccccc1CN1C2=NCCN2C(=O)C2=C1CCN(S(=O)(=O)c1ccc(Cl)c(S(N)(=O)=O)c1)C2
97 % of control

Tell me T/C reported for CCCCCC#CC1OC12CCCCC2 (stereo unspecified)
24 % of control

Tell me T/C reported for C(CSC1=NCCN1)CSC1=NCCN1
96 % of control
